# Lookup of reported INHIBITION keyed by entry
system: Plasmodium falciparum; assay: Screen against P. falciparum Asexual Blood Stage (ABS), at 5uM; assay type: functional, Dd2; details: tested at 5 uM
Hit rate of the full screen: of about 65,000 compounds, about 2,100 (3.2%) showed an effect of 50% or more. The median lay at about -52%. The full list was thinned out, with strong results kept by preference.
measured quantity: INHIBITION (%)

>>> meas_value("Cc1cc(N(C)C)cc(C2CCN(S(=O)(=O)c3cccs3)C2)n1 (configuration not stated)")
84.1
>>> meas_value("c1ccc(CN2CCOCC3(CCN(C4CCOCC4)C3)C2)cc1 (configuration not stated)")
82.2
>>> meas_value("O=C(NCC1CCC2(CCNCC2)O1)C1CC1 (configuration not stated)")
47.7
>>> meas_value("c1cncc(CN2CCCC3(COCCN(c4nccs4)C3)C2)c1 (configuration not stated)")
10.9
>>> meas_value("Fc1cccc(CN2CCC3(CCN3c3ncccn3)C2)c1 (configuration not stated)")
27.1
>>> meas_value("Cc1nc(CN2CCCCC2Cn2cccn2)nc2ccccc12 (configuration not stated)")
70.4
>>> meas_value("CCCN(CCN(C)C)C(=O)Cc1cn2ccsc2n1")
-76.3
>>> meas_value("CO[C@H]1CN(Cc2ccc(C)o2)[C@@H]2CCCO[C@H]12")
11.8
>>> meas_value("c1cncc(CN2CCC3(COCCN(C4CCOCC4)C3)C2)c1 (configuration not stated)")
-42
>>> meas_value("Cc1cnn(CC2CCCN2Cc2nc(C)c3ccccc3n2)c1 (configuration not stated)")
78
>>> meas_value("Cc1cccc(CN2CC[C@@H]3[C@@H]2CCN3C(=O)c2ccno2)n1")
-100
>>> meas_value("Fc1cccc(CN2CCOCC3(CCN(C4CCOCC4)C3)C2)c1 (configuration not stated)")
78.2

====

tested on: Plasmodium falciparum; test: Screen against P. falciparum Asexual Blood Stage (ABS), at 5uM; format: functional, Dd2; conditions: tested at 5 uM
Out of some 65,000 compounds screened, about 2,100 (3.2%) showed an effect of 50% or more. The median lay at about -52%. Shown is part of a subset that was picked to be rich in strong results.
measured quantity: INHIBITION

>>> meas_value("COc1ccc(C(=O)C2CCCN(CCc3ccccc3)C2)c(OC)c1 (stereo not drawn)")
"71.8%"
>>> meas_value("CC(=O)C1(c2ccccc2)CCN(C(=O)C2CNCCO2)CC1 (stereo not drawn)")
"-81.4%"
>>> meas_value("CC1CN(CC2CCCC2)CCN1c1ccc2nncn2n1 (stereo not drawn)")
"70.4%"
>>> meas_value("CC(C(=O)N1CCCC1)N1CCCN(C(=O)Oc2ccccc2)CC1 (stereo not drawn)")
"-54.8%"
>>> meas_value("O=C(c1ccc(Cn2ccccc2=O)o1)N1CCC2(CC1)OCCO2")
"1.12%"
>>> meas_value("O=C(NCCN1CCCCC1)C(c1ccccc1)N1CCCC1 (stereo not drawn)")
"80%"
>>> meas_value("CC(=O)C1(c2ccccc2)CCN(C(=O)CC2CNCCO2)CC1 (stereo not drawn)")
"-44.7%"
>>> meas_value("CCN(CC1CCCN(CCc2cccc(OC)c2)C1)C(=O)CN(C)C (stereo not drawn)")
"83.3%"
>>> meas_value("Cc1nn(C)c(C)c1C(C(=O)O)N1CC=C(c2ccccc2)CC1 (stereo not drawn)")
"-74.2%"
>>> meas_value("CCOC[C@@H]1CCC[C@@]12CN(Cc1cccnc1)CCO2")
"-129%"
>>> meas_value("CN1CC[C@@H]2OC[C@H](C(=O)N(C)Cc3ccccn3)C[C@@H]2C1")
"-138%"
>>> meas_value("CN1CC[C@H](N(Cc2ccccc2)Cc2ccccc2)C[C@H](O)C1")
"72.1%"
>>> meas_value("Cc1cc(CN2C[C@@H]3COC[C@]3(CNC(=O)c3ccco3)C2)no1")
"-65.1%"
>>> meas_value("O=C(CCc1cscn1)N1CCC(C(=O)O)(c2ccccc2)CC1")
"-11.5%"
>>> meas_value("c1cc(-c2n[nH]cc2-c2ccnc(N3CCCC3)n2)ccn1")
"81.1%"
>>> meas_value("Cc1ccc(N2CCO[C@H]3CN(CC4CC4)C[C@H]32)nn1")
"-15.6%"
>>> meas_value("O=C(NCC1CC1)C1CCC2(CCNCC2)C1 (stereo not drawn)")
"-31.3%"
>>> meas_value("Cc1nc(CC(=O)N2CCCC(N(C)Cc3ccccc3)C2)cs1 (stereo not drawn)")
"-55.85%"
>>> meas_value("COCCN1CCN(c2cccc(C)n2)Cc2ccc(C)nc21")
"-14.7%"
>>> meas_value("c1cncc(O[C@@H]2CC[C@H]3[C@H]2OCCN3C2CCCC2)c1")
"-118%"
>>> meas_value("Cc1ccc(N2C[C@@H]3OCCN(Cc4c(C)noc4C)[C@@H]3C2)nn1")
"6.3%"
>>> meas_value("Cc1ccc(C2(CN(C)Cc3sccc3C)CCNCC2)nc1")
"77.4%"
>>> meas_value("COC(=O)c1ccc(C2SCC(=O)Nc3c2cnn3C2CCCC2)cc1 (stereo not drawn)")
"-86.9%"

====

tested on: Plasmodium falciparum; test: Screen against P. falciparum Asexual Blood Stage (ABS), at 5uM; type: functional, Dd2; settings: tested at 5 uM
In all, about 65,000 compounds went through this assay and about 2,100 (3.2%) showed an effect of 50% or more. The median lay at about -52%. This excerpt belongs to a sample that is enriched for strong results.
measured quantity: INHIBITION (%)

>>> meas_value("Cc1ccc(CNC2CCN(CCc3ccncc3)CC2)cc1C")
86.9
>>> meas_value("NC(=O)CN1CCCN(C(=O)Cc2ccc(F)cc2)CC1")
-158
>>> meas_value("CCCn1cc(C(=O)NC(C(=O)O)c2ccccc2C(F)(F)F)c(C)n1 (stereo not drawn)")
-51.5
>>> meas_value("Cc1cccc(CNC2CCN(CCc3ccncc3)CC2)c1C")
76.3
>>> meas_value("COCCN1CCO[C@H]2CN(Cc3cccc(C)n3)C[C@H]21")
-18.3
>>> meas_value("COCCNC(=O)[C@@]12CCO[C@@H]1CCN(Cc1ccncc1)C2")
-51.1
>>> meas_value("COc1cc2nc(NCc3ccc(C)nc3)nc(N)c2cc1OC")
90.6
>>> meas_value("CN1CCN(Cc2ccncc2)Cc2cccnc21")
-190
>>> meas_value("Cc1nc(CN2CCOC3(CCCC3)C2)oc1C")
-101
>>> meas_value("Cc1c(C(=O)N2CCC(N3CCCCC3)CC2)n(C)c2ccc(Cl)cc12")
88
>>> meas_value("CC(C)c1nccc([C@@H]2C[C@@H]3CCN(Cc4ccoc4)C[C@H]3O2)n1")
-35
>>> meas_value("CC(C)c1ncc(Cl)c(C(=O)N2CCN3CCCCC3C2)n1 (stereo not drawn)")
-158
>>> meas_value("Cc1noc(CN2CC=C(c3cnn(C4CCS(=O)(=O)C4)c3)CC2)n1 (stereo not drawn)")
-15.1
>>> meas_value("CN(c1ncccc1C#N)C1CCN(CCc2ccncc2)CC1")
30.8
>>> meas_value("Cc1nc(C2(NCC(=O)NCc3cccs3)CCCCC2)no1")
-130
>>> meas_value("COCCN(CCOC)C(=O)c1cn(C(C)(C)C)c2ncccc12")
-81.6
>>> meas_value("CO[C@@H]1CCN(Cc2ccoc2)C[C@@H]1Cc1ccccc1")
89
>>> meas_value("O=C(Nc1cccnc1)[C@H]1CN(Cc2cccs2)C[C@H]2OCC[C@@H]12")
2.31
>>> meas_value("Cn1cc(N2CCC3(CCN(Cc4cccnc4)C3)C2=O)cn1 (stereo not drawn)")
-35.8
>>> meas_value("CN1CCN(Cc2ccoc2)Cc2cccnc21")
-116
>>> meas_value("Fc1ccc(CNC2CCN(CCc3ccncc3)CC2)cc1F")
89.8
>>> meas_value("c1cncc(CN2CCO[C@@H]3CN(Cc4ccoc4)CC[C@@H]3C2)c1")
30.1
>>> meas_value("O=C(c1cnccn1)N1CCN2C[C@H](Oc3cccnc3)C[C@H]2C1")
-106

====

tested on: Plasmodium falciparum; assay: Screen against P. falciparum Asexual Blood Stage (ABS), at 5uM; format: functional, Dd2; details: tested at 5 uM
The campaign covered roughly 65,000 compounds. About 2,100 (3.2%) showed an effect of 50% or more. The median lay at about -52%. The sample as a whole holds a higher share of strong results than the screen did.
# Lookup of reported INHIBITION keyed by entry
measured quantity: INHIBITION (%)

>>> meas_value("CN1CCC2(CC1)CN(Cc1ccc(C3CCCCO3)o1)CCCN2C (stereo unspecified)")
81.1
>>> meas_value("COCC(C)NC(=O)c1cn(C(C)(C)C)c2ncccc12 (stereo unspecified)")
-120
>>> meas_value("Cc1cc(CNC(C)Cn2cncn2)ccc1Br (stereo unspecified)")
-29.8
>>> meas_value("CC(=O)N1C[C@@H]2CN(Cc3cccnc3)CCO[C@@H]2C1")
-51.9
>>> meas_value("Cc1ncc(CN2C[C@H]3CC(OCc4ccccc4)C[C@H]3C2)cn1 (stereo partly specified)")
-74.6
>>> meas_value("CCOC[C@H]1CC[C@H]2[C@H](CCN2Cc2c(C)noc2C)O1")
-13.8

Recorded values, source ChEMBL document CHEMBL4513216.
